These measurements were taken from patent US20250051473A1.

Quick list: koff per entry.
Biological target: T1, recombinant human CD38 extracellular domain protein (ACROBiosystems, Cat #CD8-H5224) (human, UniProt P28907 43-300)
T1 construct: Bought protein; also called recombinant human CD38 protein
Assay: BLI (Octet 384), IgG on anti-human IgG Fc biosensors, soluble human CD38 as analyte, 1:1 global fit
Answer in s⁻¹, number only, no unit symbol.

Examples from the recorded data:
IgG OKT10-2 (antibody, V domains shown, also called humanized OKT10 IgG (OKT10VH2 / OKT10VL2)) VH: EVQLLESGGGLVQPGGSLRLSCAASGFDFSRSWMNWVRQAPGKGLEWVSEINPDSSTINYATSLKDRFTISRDNSKNTLYLQMNSLRAEDTAVYYCARYGNWFPYWGQGTLVTVSS VL: DIQMTQSPSSLSASVGDRVTITCKASQNVDTNVAWYQQKPGKAPKALIYSASYRYSGVPSRFSGSGSGTDFTLTISSLQPEDFATYYCQQYDSYPLTFGQGTKVEIK: 0.0113
IgG E-2 (antibody, V domains shown, also called humanized Clone E IgG (EVH1 / EVL1)) VH: QVQLVQSGAEVKKPGSSVKVSCKASGYTFTNHWIEWVRQAPGQGLEWMGDIFPGGGYTDYNEKFKGRVTITADESTSTAYMELSSLRSEDTAVYYCARGRDLAMDYWGQGTLVTVSS VL: DIQMTQSPSSLSASVGDRVTITCHASQNINVWLGWYQQKPGKAPKLLIYKASNLHTGVPSRFSGSGSGTDFTLTISSLQPEDFATYYCQQGQSYPYTFGQGTKVEIK: 0.00378
IgG B-1 (antibody, V domains shown, also called chimeric IgG of Clone B) VH: QAYLQQSGAEVVRSGASVKMSCKAAGYTFTSYNMHWVKQTPGQGLEWIGYIYPGNGGTNYNQKFKGKATLTADTSSTTAYMQISSLTSEDSAVYFCARGASMITTGAWFAYWGQGTLVTVSA VL: NIVLTQSPASLAVSLGQRATISCRASESLDTYGNSFMYWYQQKPGQPPKLLIYLASSLESGVPARFSGSGSRTDFTLTIDPVEADDAATYYCHQNHEDPWTFGGGTKLEIK: 7.32e-05
IgG E-1 (antibody, V domains shown, also called chimeric IgG of Clone E) VH: QVQLQQSGAELVRPGTSVKMSCKAAGYTFTNHWIEWVKQRPGHGLEWIGDIFPGGGYTDYNEKFKGKATLTADTSSSTAYMQLSSLTSEDSAIYYCARGRDLAMDYWGQGTSVTVSS VL: DIQMNQSPSSLSASLGDTITITCHASQNINVWLGWYQQKPGNIPKLLIYKASNLHTGVPSRFSGSGSGTGFTLTISSLQPEDIATYYCQQGQSYPYTFGGGTKLEIK: 0.00117

# koff (binder: IgG OKT10-1 (antibody, V domains shown, also called parental OKT10 in IgG format) VH: EVKLQESGGGLVQPGGSLKLSCAASGFDFSRSWMNWVRQAPGKGLEWIGEINPDSSTINYTTSLKDKFIISRDNAKNTLYLQMTKVRSEDTALYYCARYGNWFPYWGQGTLVTVSA VL: DIVMTQSPKIMPTSVGDRVSVTCKASQNVDTNVAWYQQKPGQSPKALIYSASYRYSGVPDRFTGSGSGTDFTLTITNVQSEDLAEYFCQQYDSYPLTFGAGTKLDLK ) is 0.00206

# binder IgG B-2 (antibody, V domains shown, also called humanized Clone B IgG (BVH1 / BVL1)) VH: QVQLVQSGAEVKKPGSSVKVSCKASGYTFTSYNMHWVRQAPGQGLEWMGYIYPGNGGTNYNQKFKGRVTITADESTSTAYMELSSLRSEDTAVYYCARGASMITTGAWFAYWGQGTLVTVSS VL: DIQMTQSPSSVSASVGDRVTITCRASESLDTYGNSFMYWYQQKPGKAPKLLIYLASSLESGVPSRFSGSGSGTDFTLTISSLQPEDFATYYCHQNHEDPWTFGQGTKVEIK ; its koff = 0.000225
